- Experiment description: TOR pathway RPL19A-GFP modulators, concentration series – cell-based, S. cerevisiae, flow cytometry, MLPCN hits, dose response (AID 2740);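 also: background is signal of the same compound in parental non-GFP s288c yeast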
- Condition info: S. cerevisiae RPL19A-GFP strain, flow cytometry fluorescence, 3 h; at 33 µM (top of the series)
Label key: Y means GFP fluorescence, lower = active (kMESF (background-subtracted)) under 40; N means GFP fluorescence, lower = active (kMESF (background-subtracted)) of 40 or more.

Does COc1cccc(N=Nc2ccc(O)c3ncccc23)c1 have GFP fluorescence, lower = active (kMESF (background-subtracted)) strictly under 40?
N

What would you report for COc1cccc(C(=O)Nc2nnc(-c3ccc(Cl)cc3)o2)c1 ?
Y

Could you do the same for CC(C)C[C@]1(c2ccccc2)ON(c2ccccc2C(F)(F)F)C1=O , please?
Y

Next compound up: O=S(=O)(/N=C(\Sc1ccc(Cl)cc1)c1ccccc1)c1ccccc1
Y

What do you get for O=C(COc1ccccc1)N1CCN(c2ncnc3c2cnn3-c2ccccc2)CC1 ?
Y

// repeat for COc1ccc(Cl)cc1C(Nc1cccnc1)c1ccc2cccnc2c1O (configuration not stated) and report
N

Here is the next compound: COc1ccc(C(c2c(C)[nH]n(C(N)=S)c2=O)C(C#N)C#N)cc1 (configuration not stated)
Y

Further, for N=C1S/C(=C\c2ccco2)C(=O)N1c1nccs1 ?
N

Same for Clc1cnc(N/N=C/c2cccs2)c(Cl)c1
N

Request: CCCCC1OC23CCCCC2C(C#N)(C(=N)O3)C1(C#N)C#N (configuration not stated)
N

Try this compound too: O=C(CCS(=O)(=O)c1ccccc1)Nc1nc(-c2ccccn2)cs1
Y

Another compound to look at: Cc1ccc(C2=NOC(=O)/C2=C\c2ccc(C)o2)cc1
Y

Follow-up entry: O=C1CCN(S(=O)(=O)c2ccccc2)CCN1CCOCc1ccc(F)cc1
Y

One more compound: CCCCC(=O)NC(=S)NNC(=O)CCc1ccccc1
Y

And for O=C(c1ccccn1)c1conc1C(=O)c1ccc(Br)cc1 ?
Y

// next record CCCCCn1c(=O)c(C(=O)Nc2nc3ccccc3[nH]2)c(O)c2ccccc21
N

----------
- Experiment description: TOR pathway RPL19A-GFP modulators, concentration series – cell-based, S. cerevisiae, flow cytometry, MLPCN hits, dose response (AID 2740);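 also: background is signal of the same compound in parental non-GFP s288c yeast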
- Condition info: S. cerevisiae RPL19A-GFP strain, flow cytometry fluorescence, 3 h; at 33 µM (top of the series)
I'd appreciate it if you could supply GFP fluorescence, lower = active (kMESF (background-subtracted)) values for the items below.
Could you respond with only the numeric value?

Can you share its GFP fluorescence, lower = active (kMESF (background-subtracted))? I mean this compound: COc1ccc(C(=O)NC(=S)NNC(=O)CCc2ccccc2)cc1
46.5

Next up: O=C1C(Cl)=C(NCCc2ccccc2)C(=O)N1CCc1ccccc1
43.1

Likewise for Cc1ccccc1C(=O)NNC(=S)NC(=O)c1ccc(Cl)cc1Cl ?
45.9

And what about the compound O=C(Nc1ccc(N2CCOCC2)cc1)C1CCN(S(=O)(=O)c2ccc3c(c2)OCCO3)CC1 ?
34.9

Moving on to C/C(=N/NC(=O)c1ccc(C(C)(C)C)cc1)c1ccccn1
45.9

Moving on to CCOC(=O)CSC1=NC(=O)/C(=C/c2ccc(OC)cc2)S1
43.8

Can you check CN1CCN(C(c2ccc(C(F)(F)F)cc2)c2ccc3cccnc3c2O)CC1 (stereo not drawn) next?
29.6

Input O=C(Oc1c(Cl)cc(Cl)c2cccnc12)c1cccs1
36.1
